These data points were gathered from the supplement of paper PMC10646978.

For each record, write down the corresponding NF-kB reporter.
# System: RAW-Dual (murine macrophage reporter line)
# assayDetails: NF-kB reporter (SEAP) activity fold change vs agonist alone; higher = enhanced NF-kB activity
# testContext: modulator concentration 10 µM; agonist: CpG ODN 1826 0.5 ug/mL
Give bare numbers.

Example entries and their recorded answers appear below.
{"columns": ["compound", "NF-kB reporter"],
 "data": [
  ["Nc1ccccc1NC(=O)c1ccc(CNC(=O)OCc2cccnc2)cc1", 2.23],
  ["Oc1ccccc1-c1cc(C(F)(F)F)on1", 1.02],
  ["CN(C)CCC(c1ccc(Br)cc1)c1ccccn1.O=C(O)/C=C\\C(=O)O (stereo unspecified)", 1.07],
  ["COC(=O)C1=CN(CC2CCCO2)C=C(C(=O)OC)C1c1cccc(OC)c1 (stereo unspecified)", 1.36]
]}

Report NF-kB reporter for every entry below.
1. COC(=O)C1=CN(C2CC2)C=C(C(=O)OC)C1c1ccccc1OC
2. N[C@@H](CC(=O)N1CCn2c(nnc2C(F)(F)F)C1)Cc1cc(F)c(F)cc1F
3. Cn1nccc1-c1ccc(CNC(=O)c2cc(Br)cs2)cn1
4. Fc1ccc2ccccc2c1
5. CCN(CC)CCOC(=O)C(c1ccccc1)c1ccccc1

Response:
1: 0.917; 2: 0.793; 3: 1.02; 4: 0.958; 5: 0.712

Below are 4 compounds. Give each one its NF-kB reporter.
1. CN1CC(O)C2=C/C(=N/NC(N)=O)C(=O)C=C21 (stereo unspecified)
2. CC(NC(=O)C(=O)NN=Cc1ccc(Cl)cc1Cl)c1ccccc1 (stereo unspecified)
3. CS(=O)(=O)c1cccc(C[C@H](NC(=O)c2c(Cl)cc3c(c2Cl)CCN(C(=O)c2ccc4ccoc4c2)C3)C(=O)O)c1
4. O=C(COc1ccc2ccccc2c1)Nc1cnoc1

Response:
1: 0.855; 2: 0.967; 3: 1.12; 4: 1.12

Provide reported NF-kB reporter for each item, in the same order as listed.
1. Nc1ncnc2c1ncn2C1CC(O)C(CO)O1 (stereo unspecified)
2. O=C(O)CCC(=O)Nc1ccc(Br)cn1
3. Cc1ccc(C(=O)NC(=Cc2cccc3ccccc23)C(=O)N2CCCC2)cc1
4. Cc1cc(OCc2nc(-c3ccc(Cl)cc3Cl)no2)ccc1Br
5. Nc1c2c(nc3ccccc13)CCCC2
6. CCOC(=O)c1cnn(CCOc2ccccc2)c1N
7. Cc1cccc(Cn2c(=O)c3nscc3n(Cc3ccc(F)c(F)c3)c2=O)c1

Response:
1: 0.992; 2: 1.17; 3: 0.957; 4: 1.03; 5: 0.919; 6: 1.05; 7: 1.14

----------
# Tested on: RAW-Dual (murine macrophage reporter line)
# assayDetails: viability score (confluency relative to resting cells, overnight) (fraction); higher = more viable, active = viable (0.7 or more)
# testContext: modulator concentration 10 µM
Kindly state viability score for each of the entries shown.

{"columns": ["compound", "measurement"],
 "data": [
  ["CCOC(=O)C1=C(C)NC(C)=C(C(=O)OC)C1c1cccc(Cl)c1Cl (stereo unspecified)", "0.859 (active)"]
]}

For each listed entry, give its viability score.
1. O=C(COc1ccc2ccccc2c1)Nc1cnoc1
2. O=C(Nc1nc2ccc(Cl)cc2s1)c1ccc(Br)s1
3. Cl.Cl.Cn1cc(CNCC2CCN(c3ncc(C(=O)NO)cn3)CC2)c2ccccc21
4. CC12CCC(=O)C=C1C=CC1C2CCC2(C)C1CCC21CCC(=O)O1 (stereo unspecified)

Response:
1 (active)
0.999 (active)
0.0605 (inactive)
1.01 (active)

Query: Any idea what viability score came out for "Cc1ccc(S(=O)(=O)Nc2cc(-c3c(O)ccc4ccccc34)c(O)c3ccccc23)cc1" on RAW-Dual (murine macrophage reporter line)?
Response: 0.956 (active)
